Target or system: VMAT2 (Rattus norvegicus)
Construct: from tissue; host or cells: rat striatum, isolated synaptic vesicles
Sequence (Q01827 whole entry): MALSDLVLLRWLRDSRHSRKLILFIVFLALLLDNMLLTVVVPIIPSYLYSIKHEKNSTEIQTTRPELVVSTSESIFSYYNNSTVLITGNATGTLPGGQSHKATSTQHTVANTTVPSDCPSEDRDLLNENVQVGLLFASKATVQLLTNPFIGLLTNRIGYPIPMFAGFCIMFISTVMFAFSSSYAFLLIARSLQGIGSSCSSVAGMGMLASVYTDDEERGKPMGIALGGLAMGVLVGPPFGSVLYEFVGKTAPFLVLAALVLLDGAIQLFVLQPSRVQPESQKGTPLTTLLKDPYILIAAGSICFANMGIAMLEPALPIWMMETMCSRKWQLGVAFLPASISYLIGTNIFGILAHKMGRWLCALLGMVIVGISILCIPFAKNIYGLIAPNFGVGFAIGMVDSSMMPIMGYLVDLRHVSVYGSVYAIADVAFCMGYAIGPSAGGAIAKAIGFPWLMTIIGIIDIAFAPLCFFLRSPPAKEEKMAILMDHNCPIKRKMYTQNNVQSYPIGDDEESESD
Measurement protocol: [3H]Dopamine ([3H]DA) uptake assay, vesicular preparation
Format: biochemical
Endpoint name: Ki

[[record]]
compound = "CC(Cc1ccc(F)c(F)c1)NCCCc1cccc(-c2ccnn2C)c1 (stereo not drawn)"
measurement = "51 nM"

[[record]]
compound = "CC(Cc1ccc(F)c(F)c1)NCCCc1ccc2ncoc2c1 (stereo not drawn)"
measurement = "50 nM"

[[record]]
compound = "CC(Cc1ccc(F)c(F)c1)NCCCc1cccc(Cl)c1 (stereo not drawn)"
measurement = "19 nM"

[[record]]
compound = "CC(Cc1ccc(F)c(F)c1)NCCCc1ccccc1-c1cccnc1 (stereo not drawn)"
measurement = "88 nM"

[[record]]
compound = "CC(Cc1ccc(F)c(F)c1)NCCCc1ccc(Cl)cc1Cl (stereo not drawn)"
measurement = "61 nM"

[[record]]
compound = "CC(Cc1ccc2nccnc2c1)NCCCc1ccc(S(N)(=O)=O)cc1 (stereo not drawn)"
measurement = "46 nM"

[[record]]
compound = "CC(Cc1ccccc1)NCCCc1ccc(OC(F)(F)F)cc1 (stereo not drawn)"
measurement = "16 nM"

[[record]]
compound = "CC(Cc1ccc(F)cc1)NCCCc1ccc(Cl)c(N)c1 (stereo not drawn)"
measurement = "38 nM"

[[record]]
compound = "Fc1ccc(CCCNC(Cc2ccccc2)Cc2ccccc2)cc1"
measurement = "346 nM"

